The origin of these recorded values is patent US20230026616A1.

experiment: Pharmacokinetic evaluation (1): cassette PK in Balb/c male mice, plasma; type: in vivo; conditions: male, Balb/c; mouse plasma, IV 0.4 mg/kg; read-out: Vdss
readout: Vd (L/kg)

| given-smiles | unit-of-measurement | Vd |
| --- | --- | --- |
| Cc1cc2ncnn2cc1Nc1ncc2c(n1)n(N1C3CCC1COC3)c(=O)n2C | L/kg | 1.08 |
| Cc1cc2nncn2cc1Nc1ncc2c(n1)n(N1CC3CCC(C1)O3)c(=O)n2C | L/kg | 1.39 |

A: Cc1cc2ncnn2cc1Nc1ncc2c(n1)n(N1CCOCC1)c(=O)n2C
B: Cc1cc2ncnn2cc1Nc1ncc2c(n1)n(N1CCOC3(CC3)C1)c(=O)n2C
Of A and B , whose reported Vd is the larger number? Indicate which entry you chose by stating its label.
A

###

assay: Pharmacokinetic evaluation in Beagle dogs; format: in vivo, Male Beagle dogs; conditions: male, 1 mg/kg; Beagle dog plasma, IV 1 mpk
readout: C0 (nM)

| compound | reported-result |
| --- | --- |
| Cc1cc2nncn2cc1Nc1ncc2c(n1)n(N1CC3CCC(C1)O3)c(=O)n2C [Compound 17] | 1450 |
| Cc1cc2ncnn2cc1Nc1ncc2c(n1)n(N1CC3CCC(C1)O3)c(=O)n2C [Compound 5] | 1820 |

###

Assay: Pharmacokinetic evaluation (1): cassette PK in Balb/c male mice, plasma
Format: in vivo
Details: male, Balb/c; mouse plasma, PO 5 mg/kg
Description: Test compounds were mixed with 10% dimethyl sulfoxide/50% polyethylene glycol 200/40% water (compounds 1, 4, 10, 17) or 20% N,N-dimethylacetamide/80% water (compound 5), vortexed and sonicated to prepare a nearly clear solution of 0.08 mg/mL (compounds 1, 4, 10, 17) or 0.50 mg/mL (compound 5), then filtered through a microporous membrane for next step. […]
readout: AUC(0-t) (µM·h)
Your answer is read as µM·h, so omit the unit and give the number.

What the record says about `Cc1cc2ncnn2cc1Nc1ncc2c(n1)n(N1CC3CCC(C1)O3)c(=O)n2C` : AUC(0-t) is 3.49

###

assay: Pharmacokinetic and brain exposure evaluation in rats; assay type: in vivo, SD male rats; conditions: male, SD, 1 mg/kg; rat plasma, IV 1 mpk
readout: clearance (mL/min/kg)
Your answer is read as mL/min/kg, so omit the unit and give the number.

What the record says about Cc1cc2ncnn2cc1Nc1ncc2c(n1)n(N1CC3CCC(C1)O3)c(=O)n2C [Compound 5] : clearance is 17

###

assay: Pharmacokinetic evaluation in Beagle dogs; format: in vivo, Male Beagle dogs; conditions: male, 5 mg/kg; Beagle dog plasma, PO 5 mpk
readout: Tmax (h)

| given-smiles | Tmax (h) |
| --- | --- |
| Cc1cc2nncn2cc1Nc1ncc2c(n1)n(N1CC3CCC(C1)O3)c(=O)n2C | 1.5 |
| Cc1cc2ncnn2cc1Nc1ncc2c(n1)n(N1CC3CCC(C1)O3)c(=O)n2C | 1.67 |

###

test: Pharmacokinetic evaluation in cynomolgus monkeys; format: in vivo, Male cynomolgus monkeys; details: male, 5 mg/kg; cynomolgus monkey plasma, PO 5 mpk
readout: Cmax (µM)
Your answer is read as µM, so omit the unit and give the number.

What the record says about Cc1cc2ncnn2cc1Nc1ncc2c(n1)n(N1CC3CCC(C1)O3)c(=O)n2C [Compound 5] : Cmax is 4.5

###

assay: Pharmacokinetic evaluation in mice (2), plasma; format: in vivo, Balb/c male mice; settings: male, Balb/c, 2 mg/kg; mouse plasma, IV 2 mpk
readout: C0 (µM)
Your answer is read as µM, so omit the unit and give the number.

What the record says about `Cc1cc2ncnn2cc1Nc1ncc2c(n1)n(N1CC3CCC(C1)O3)c(=O)n2C` : C0 is 4.74
